Target: FSH receptor (Homo sapiens, UniProt P23945)
Sequence (P23945 18-695): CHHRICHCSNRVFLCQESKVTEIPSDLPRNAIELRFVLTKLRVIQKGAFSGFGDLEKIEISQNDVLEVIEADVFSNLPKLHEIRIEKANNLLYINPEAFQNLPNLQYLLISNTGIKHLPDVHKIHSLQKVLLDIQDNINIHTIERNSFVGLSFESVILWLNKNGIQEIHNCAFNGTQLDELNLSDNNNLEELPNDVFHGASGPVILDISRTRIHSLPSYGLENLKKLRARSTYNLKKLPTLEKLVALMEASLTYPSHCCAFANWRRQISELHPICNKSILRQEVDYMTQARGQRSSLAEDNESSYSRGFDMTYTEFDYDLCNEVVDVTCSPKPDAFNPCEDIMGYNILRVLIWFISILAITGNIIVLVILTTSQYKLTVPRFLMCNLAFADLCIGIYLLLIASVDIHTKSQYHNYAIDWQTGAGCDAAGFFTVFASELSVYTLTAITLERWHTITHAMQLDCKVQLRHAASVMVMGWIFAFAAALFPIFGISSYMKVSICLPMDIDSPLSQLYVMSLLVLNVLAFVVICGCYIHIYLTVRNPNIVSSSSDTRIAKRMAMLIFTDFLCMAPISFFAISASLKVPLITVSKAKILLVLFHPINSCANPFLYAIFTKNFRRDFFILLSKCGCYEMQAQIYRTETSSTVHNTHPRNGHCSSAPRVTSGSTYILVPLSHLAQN
Assay: FSH Receptor Radioligand Membrane Binding Standard Pharmacological Test Procedure
Design: expressed in transfected cells
Conditions: [125I]FSH binding to membranes of CHO cells stably transfected with the human FSH receptor
Let's look at some molecules and their measured pIC50.
Reminder that pIC50 means the negative base-10 logarithm of the concentration expressed in mol/L.

Use these answered entries as a reference point.
Lab book: pIC50 of COc1ccc(C(=O)Nc2ccc(CCc3ccc(NC(=O)c4ccc(OC)c(S(=O)(=O)N5CCOCC5)c4)cc3S(=O)(=O)O)c(S(=O)(=O)O)c2)cc1S(=O)(=O)N1CCOCC1 [Example 30p] noted as 5.60

Lab book: pIC50 of COCCOCCSc1ccc(C(=O)Nc2ccc(/C=C/c3ccc(NC(=O)c4ccc(SCCOCCOC)c(S(=O)(=O)N5CCOCC5)c4)cc3S(=O)(=O)O)c(S(=O)(=O)O)c2)cc1S(=O)(=O)N1CCOCC1 [Example 32o] noted as 5.82

***
Lab book: pIC50 of O=C(O)C=CCS(=O)(=O)c1cccc(C(=O)Nc2ccc(C=Cc3ccc(NC(=O)c4cccc(S(=O)(=O)CC=CC(=O)O)c4)cc3S(=O)(=O)O)c(S(=O)(=O)O)c2)c1 [Example 36c] noted as 5.27

----------
Target: FSH receptor (Homo sapiens)
Sequence (P23945 18-695): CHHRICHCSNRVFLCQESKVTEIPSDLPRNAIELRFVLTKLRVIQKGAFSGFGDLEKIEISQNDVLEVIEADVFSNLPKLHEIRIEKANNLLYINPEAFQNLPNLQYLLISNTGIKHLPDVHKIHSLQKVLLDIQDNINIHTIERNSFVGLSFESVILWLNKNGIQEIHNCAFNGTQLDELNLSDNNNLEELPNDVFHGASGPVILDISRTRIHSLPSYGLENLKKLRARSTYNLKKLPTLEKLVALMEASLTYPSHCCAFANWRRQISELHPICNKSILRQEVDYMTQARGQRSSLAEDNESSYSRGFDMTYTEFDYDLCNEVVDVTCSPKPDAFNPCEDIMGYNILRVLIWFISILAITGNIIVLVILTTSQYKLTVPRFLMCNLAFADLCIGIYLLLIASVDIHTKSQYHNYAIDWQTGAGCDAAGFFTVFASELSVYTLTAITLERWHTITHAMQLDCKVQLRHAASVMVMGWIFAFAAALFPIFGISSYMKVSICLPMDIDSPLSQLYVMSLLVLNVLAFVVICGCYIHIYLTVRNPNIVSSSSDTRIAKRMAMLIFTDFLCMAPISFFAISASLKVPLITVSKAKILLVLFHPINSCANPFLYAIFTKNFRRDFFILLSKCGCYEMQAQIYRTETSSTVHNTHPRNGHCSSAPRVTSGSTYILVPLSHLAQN
Test: In Vitro Bio-test Procedure of Agonists and Antagonists to the FSH Receptor (cAMP accumulation in CHO-3D2 cells)
Assay type: cell-based
Parameters: expressed in transfected cells; host or cells: CHO-3D2 cells
result type: pIC50
Reminder that pIC50 means the negative base-10 logarithm of the concentration expressed in mol/L.

Use these answered entries as a reference point.
Lab book: pIC50 of COc1ccc(C(=O)Nc2ccc(/C=C/c3ccc(NC(=O)c4ccc(OC)c(S(=O)(=O)N5CCSCC5)c4)cc3S(=O)(=O)O)c(S(=O)(=O)O)c2)cc1S(=O)(=O)N1CCSCC1 [Example 33d] noted as 5.59

Lab book: pIC50 of COc1ccc(C(=O)Nc2ccc(/C=C/c3ccc(NC(=O)c4ccc(OC)c(S(=O)(=O)N5CCN(C(C)=O)CC5)c4)cc3S(=O)(=O)O)c(S(=O)(=O)O)c2)cc1S(=O)(=O)N1CCN(C(C)=O)CC1 [Example 34a] noted as 5.48

Lab book: pIC50 of COCCOc1ccc(C(=O)Nc2ccc(/C=C/c3ccc(NC(=O)c4ccc(OCCOC)c(S(=O)(=O)N5CCOCC5)c4)cc3S(=O)(=O)O)c(S(=O)(=O)O)c2)cc1S(=O)(=O)N1CCOCC1 [Example 30t] noted as 5.85

Lab book: pIC50 of COc1ccc(C(=O)Nc2ccc(/C=C/c3ccc(NC(=O)c4ccc(OC)c(S(=O)(=O)N5CCOCC5)c4)cc3S(=O)(=O)O)c(S(=O)(=O)O)c2)cc1S(=O)(=O)N1CCOCC1 [Example 30s] noted as 5.36

Now, please, on to the next molecule.
Lab book: pIC50 of COCCN(CCOC)S(=O)(=O)c1cc(C(=O)Nc2ccc(/C=C/c3ccc(NC(=O)c4ccc(OC)c(S(=O)(=O)N(CCOC)CCOC)c4)cc3S(=O)(=O)O)c(S(=O)(=O)O)c2)ccc1OC [Example 30o] noted as 5.21
